Assay: A qHTS for Small Molecule Inhibitors of Shiga Toxin
Settings: Vero cells, Shiga toxin protein synthesis inhibition reporter; at 38.7 µM
In all, about 290,000 compounds went through this assay and about 27,000 (9.3%) were called active. Rule as the data show it: active = inhibition mostly above about 28% (no sharp cut-off); inactive = mostly below about 43%. This is one part of a sample in which actives are shown more often than they occur.
Outcomes: active, inactive

compound	label
Nc1nc(NCC2CCCO2)nc(Nc2ccccc2F)c1[N+](=O)[O-] (stereo not given)	inactive
O=C(Nc1nc2c(F)cc(F)cc2s1)C1COc2ccccc2O1 (stereo not given)	active
O=C(CCc1ccccc1)Nc1ncc([N+](=O)[O-])s1	active
O=C(Nc1nc(-c2ccncc2)cs1)C1COc2ccccc2O1 (stereo not given)	inactive
COc1ccc(NC(=O)c2ccccc2[N+](=O)[O-])cc1OC	inactive
COc1ccc(/C(N)=N/OC(=O)CCCc2ccccc2)cc1	active
O=C(NC(=O)c1ccccc1)NC(=O)c1ccccc1	inactive
COc1ccc2c(C)c(CCC(=O)NC3CC3)c(=O)oc2c1C	inactive
Cc1[nH][nH]c(=O)c1C(c1ccc2c(c1)OCO2)c1c(C)[nH][nH]c1=O	inactive
O=C(Cc1c(F)cccc1Cl)Nc1ccc(-n2cnnn2)cc1	inactive
O=C(Nc1ccc(S(=O)(=O)N2CCCCC2)cc1)c1cnccn1	inactive
CC(=O)Nc1ccc(C(=O)N(C2=NC(C)CS2)c2ccc(Cl)cc2)cc1 (stereo not given)	inactive
COc1ccc(S(=O)(=O)N2CCCC(C(=O)Nc3ccc(NC(=O)c4ccccn4)cc3)C2)cc1 (stereo not given)	active
Cn1ccnc1SCC(=O)Nc1ccc2c(c1)OCCO2	inactive
COc1ccc(NC(=O)C2CCCN(S(=O)(=O)c3cccc4cccnc34)C2)cc1 (stereo not given)	inactive
CC(=O)Oc1ccccc1C(=O)Nc1ncc([N+](=O)[O-])s1	active
COc1ccc(C2/C=C\CN(C(=O)c3ccc(C)cc3)C(Cc3ccccc3)C(=O)N2Cc2ccc(F)cc2)cc1 (stereo not given)	inactive
O=C(CCCN1C(=O)/C(=C/c2cccs2)SC1=S)Nc1ccc(O)cc1	inactive
CC(CCc1ccccc1)NC(=O)c1cnc(Cl)c(Cl)c1 (stereo not given)	inactive
O=C(NCN1CCN(CCO)CC1)c1cnccn1	inactive
CCCc1nnc(SCC(=O)Nc2ccc(C(=O)OCC)cc2)o1	inactive
C#CCOc1ccccc1/C=C1/C(=O)ON=C1C	inactive
O=C(Nc1ncc([N+](=O)[O-])s1)C1COc2ccccc2O1 (stereo not given)	active
COc1ccc(NC(=O)CC2COc3ccccc3O2)c(OC)c1 (stereo not given)	inactive
CCOC(=O)/C(C#N)=C\c1c(C)cc(C)c(COC(C)=O)c1C	active
O=C(Nc1ccc(C(=O)O)c(O)c1)c1ccccc1	inactive
O=C(CCc1ccccc1)Nc1ccnn1C1CCN(Cc2ccc(OCCO)cc2)CC1	inactive
CCOc1cccc(NC(=O)C2CCCN(S(=O)(=O)c3ccc(OC)cc3)C2)c1 (stereo not given)	inactive
CCOC(=O)NC(=O)/C(C#N)=C\c1ccccc1	inactive
O=C(Nc1nnc(SCc2ccc(Cl)cc2Cl)s1)C1COc2ccccc2O1 (stereo not given)	inactive
C/C(=N\NC(=O)CNC(=O)C(c1ccccc1)c1ccccc1)c1ccc(C)cc1	inactive
COC(=O)c1c(NC(=O)c2ccccc2F)sc2c1C(C(=O)OC)CC2 (stereo not given)	inactive
O=C(O)CCCn1cc(NC(=O)COc2cccc(Cl)c2)cn1	inactive
COc1ccc(C(=O)NC2CC2)cc1OC1CCN(C/C=C/c2ccccc2)CC1	inactive
CC1(C)Cc2c(cnn2-c2cccc(F)c2)C(NC(=O)c2cc[n+]([O-])cc2)C1 (stereo not given)	inactive
CCN1CCN(c2ccc(NC(=O)c3cnccn3)cc2)CC1	active
Cc1cccnc1CC(C)NC(=O)c1cc(COc2cncc(Cl)c2)on1 (stereo not given)	active
O=C(Nc1ccncc1)c1ccccc1[N+](=O)[O-]	inactive
COc1ccc(NC(=O)C2CCC(CNC(=O)[C@@H]3Cc4ccccc4CN3)CC2)cc1 (stereo not given in full)	inactive
COc1ccc(OCCCC(=O)NCCc2ccccc2)cc1	inactive
COc1ccc(-c2ccc(CCC(=O)O)n2-c2ccc(O)cc2)cc1	inactive
COCCCn1c(CCC(=O)O)ccc1-c1ccc(F)cc1	inactive
CN1CCN(C(=O)/C(=C\c2ccc3c(c2)OCO3)NC(=O)c2cccs2)CC1	inactive
Cc1ccc(-n2ncc(C(=O)NC3CC3)c2C2CCN(C(=O)OC(C)(C)C)CC2)c(C)c1	inactive
O=C(OCCN=C1NS(=O)(=O)c2ccccc21)c1cccc([N+](=O)[O-])c1	inactive
